System: MCF7 breast
protocol-description: NCI-60 one-dose screen, 48 h
measurement-setup: 10 µM
The panel holds about 83,000 compounds, 20% with a hit somewhere; the sample as a whole holds those more often. Active and inactive are the calls of the source. The calls were made as follows: active = growth percent below 10; inactive = the rest.
Give your call using only these classes: Yes for active, No for inactive

Take a look at these entries with their results.
molecule	assigned-class
CCN1CCN(c2ccc(Nc3ncnc4c3nnn4CCc3cc(OC)cc(OC)c3)cc2)CC1	No
Cc1ccc([P+](Cc2ccc([N+](=O)[O-])cc2)(c2ccc(C)cc2)c2ccc(C)cc2)cc1	No
FC(F)(F)c1ccc(-c2cnc(Cl)nc2NCc2cc(C(F)(F)F)cc(C(F)(F)F)c2)cc1	Yes
Cc1ccc(S(=O)(=O)Oc2ccccc2-c2ccccc2)cc1	No
N#Cc1cnc2ccc(NCc3cnc[nH]3)cc2c1Nc1ccc(F)c(Cl)c1	No

What is the recorded call for this molecule in the test? Cc1ccc(/C=C2\CN(Cc3cn(CCNc4ccnc5cc(Cl)ccc45)nn3)C/C(=C\c3ccc(C)cc3)C2=O)cc1 Yes

In this assay, the call recorded for Cc1ccc(-c2cc(-c3cccc(Nc4ccnc5cc(Cl)ccc45)c3)nc3nc(N)[nH]c(=O)c23)cc1 was what? No

Call for entry COc1ccc(Nc2ccnc(N3CCN(c4ccnc5cc(Cl)ccc45)CC3)n2)cc1 : Yes

How did this test come out for CCCCCCCCCCSC(=N)N (tested in a mixture with another compound) ? No

* * *

System: SF-295 CNS
protocol-description: NCI-60 one-dose screen, 48 h (100 = growth as untreated, 0 = no growth, -100 = all killed)
measurement-setup: 10 µM
About 83,000 compounds went through this panel and 20% of them were active in at least one assay; those are over-represented in the sample as a whole.
Could you mark each record TRUE if its growth falls strictly under 90%, and FALSE if it equals or exceeds it?

smiles-repr	assigned-class
Nc1nc(SCC#CCCl)c2[nH]cnc2n1	TRUE
Cc1ccc2oc(=O)cc(/C(=C3/C=CC=N3)c3ccc[nH]3)c2c1	TRUE
COc1ccc(-c2csc(NC(=O)CO[N+](=O)[O-])n2)cc1	FALSE
CCOC(=O)CNC(=O)Nc1ccc(Oc2ccc(NC(=O)NCC(=O)OCC)cc2)cc1	FALSE
Oc1ccc(/C=N\Nc2ccccn2)c(O)c1	TRUE
C[n+]1c(/C=C/c2c[nH]c3ccccc23)ccc2ccccc21	TRUE
CCCCNC(=O)Oc1ccc(/C(=C(\C)c2ccc(OC)cc2)c2ccc(OCCN3CCCCC3)cc2)cc1	TRUE
COc1ccc(OC)c([N+](=O)[O-])c1C=O	FALSE

Shifting focus to the compound that follows.
Quick check: growth of COc1cc(-c2n/c(=C\c3c(O)[nH]c4ccccc34)cc3c2=Nc2ccccc2-3)cc(OC)c1OC under 90%? TRUE

* * *

Test system: HOP-92 NSCLC
protocol-description: NCI-60 one-dose screen, 48 h
measurement-setup: 10 µM
The panel holds about 83,000 compounds, 20% with a hit somewhere; the sample as a whole holds those more often. Active and inactive are the calls of the source. The calls were made as follows: active = growth percent below 10; inactive = the rest.
# output must be one of active, inactive

Example entries begin here.
compound	assigned-class
CN(C)c1ccc2c(c1)OC(N)=C(C#N)C2c1ccc2c(c1)CCO2 (centres undefined)	inactive
CCCCC(=O)N(c1ccc(Nc2c3ccccc3nc3cc([N+](=O)[O-])ccc23)cc1)S(C)(=O)=O	inactive

GET /call?item= COc1ccc(C2CC(c3ccc(-c4ccccc4)cc3)=NN2c2ccc(S(N)(=O)=O)cc2)cc1 (centres undefined) returns the recorded outcome of this test. inactive

How did this test come out for Cc1ccc(C2C=C(c3ccc(Cl)cc3)N=C3SC=CN32)c(Br)c1 (centres undefined) ? inactive

Tell me the recorded outcome of this test for COc1ccc(-c2[nH]ncc2/C=C/c2cc(C(F)(F)F)[nH]c(=O)n2)cc1 . inactive

Recorded test call requested for CC(C)C[C@H](NC(=O)Cn1ccc2ccccc2c1=O)B(O)O inactive

Per the assay record, what outcome was assigned to CC1(C)Cc2c(cn(Cc3ccccc3)c2-c2ccccc2)-c2oncc21 ? inactive

What did the test return for COC(=O)c1cnc2c(c1)Oc1ccc(Cl)cc1-c1cc(C)nn1-2 ? inactive

Can you look up the reported call for C=C1C(=O)O[C@H]2[C@H]1CC/C(COC(=O)OCCCCCOC(=O)OC/C1=C/CC[C@@]3(C)O[C@H]3[C@H]3OC(=O)C(=C)[C@@H]3CC1)=C\CC[C@@]1(C)O[C@@H]21 for me? active

* * *

Test system: RPMI-8226 leukemia
protocol-description: NCI-60 one-dose screen, 48 h (100 = growth as untreated, 0 = no growth, -100 = all killed)
measurement-setup: 10 µM
The panel holds about 83,000 compounds, 20% with a hit somewhere; the sample as a whole holds those more often.
parameter-measured: growth (%)
Numbers only, in %.

Reference set, count: 6
molecule	growth, %
Cc1nc2cc(-n3c(-c4ccc(F)cc4)nc4ccccc4c3=O)ccc2n1Cc1ccccc1	37.5
COc1cc(C2=Nc3c/c(=C\c4c(O)[nH]c5ccc(Cl)cc45)ccc3=N2)cc(OC)c1OC	16.3
COc1ccc(COC(=O)CC(C)C)cc1	103
Cc1ccc(C(=O)O)c(N)c1C	98.7
O=C(Nc1cccc(Cl)c1)Nc1cc2ncncc2cc1OCc1cccc(F)c1	-0.539
Cc1cc(=O)oc2cc(OCc3cn(CC(O)CO)nn3)ccc12 (stereo unspecified)	92.9

Give growth for each of the items listed below.
1. [O-]c1c[n+](-c2ccc(Cl)cc2)no1
2. O=C(CCl)N1c2ccccc2Sc2ccc3ccccc3c21
3. CCOc1ccc(-n2cc(-c3ccc(N(C)C)cc3)[n+]3c2CCCCC3)cc1

101
-47.3
6.41

Lab note: each molecule below needs its growth filled in.
1. Cc1ccc(/C(CS(=O)(=O)c2ccc(C)cc2)=N\O)cc1
2. CC(=O)[C@H]1CC[C@H]2[C@@H]3CC[C@@H]4CC=C(C=O)C[C@]4(C)[C@H]3CC[C@]12C

96.6
58.1

* * *

Test system: SNB-19 CNS
protocol-description: NCI-60 one-dose screen, 48 h (100 = growth as untreated, 0 = no growth, -100 = all killed)
measurement-setup: 10 µM
About 83,000 compounds went through this panel and 20% of them were active in at least one assay; those are over-represented in the sample as a whole.
parameter-measured: growth (%)
Numbers only, in %.

Record growth per entry; entries follow.
1. CCOC(=O)c1sc(Nc2ncccn2)nc1-c1ccccn1
2. CCN(CC)CC(O)CNc1ccnc2cc(Cl)c(Cl)cc12 (configuration not stated)
3. COc1cc(-c2nc3ccccc3[nH]2)ccc1OCc1nnc(-c2ccc(Br)cc2)o1
4. O=C(c1ccccc1)C(Nc1ccccc1)c1ccccc1 (configuration not stated)
5. O=C1/C(=C/c2ccc(O)cc2)Oc2ccc(Cl)cc21
6. Cc1cccc2c(Nc3ccc(NS(C)(=O)=O)cc3)c3ccc([N+](=O)[O-])cc3nc12

91.5
110
104
101
85.1
25.7

Please look at the items below and tell me growth for each one, in order.
1. CC(=O)CS(C)(=O)=O
2. CCCCCC(=O)N1c2ccccc2NC2=C(C(=O)CC(c3ccc(OC)c(OC)c3)C2)C1c1ccc(C(F)(F)F)cc1 (configuration not stated)
3. N/C(=N\O)c1cn(C2OC(CO)C(O)C2O)c2ncnc(N)c12 (configuration not stated)
4. CCCOCC(O)CNCCN (configuration not stated)

102
58.1
16.5
102

Hey, quick one: what's growth for each of these?
1. CC(=O)Nc1nc(C)c(C(=O)NNC=O)s1
2. C#CCn1c(-c2cccc(OCCCCl)c2)nc2c1c(=O)n(C)c(=O)n2C

1. 117
2. 97

* * *

System: COLO 205 colon
protocol-description: NCI-60 one-dose screen, 48 h (100 = growth as untreated, 0 = no growth, -100 = all killed)
measurement-setup: 10 µM
About 83,000 compounds went through this panel and 20% of them were active in at least one assay; those are over-represented in the sample as a whole.
Outcome label depends on growth relative to 70%: at/above gives 1, below gives 0.

As a guide, the following entries are already answered.
compound	assigned-class
CC[C@@]1(C(N)=O)CC2C=CC1C2 (stereo partly specified)	1
N#Cc1cnc2ccc(NCc3cnc[nH]3)cc2c1Nc1ccc(F)c(Cl)c1	1
COc1ccc(C2=Cc3ccc(OC(C)=O)cc3OC2)cc1	1
O=S(=O)(NC1c2ccccc2Oc2ccccc21)c1cc(Cl)ccc1Cl	1

Please check the record C[C@@H]1N=C(c2ccc(Br)cc2)Nc2nc3ccccn3c2C1=O and state if its growth is at or above 70%. 0

Is reported growth greater than or equal to 70% here: CS(=O)(=O)Nc1ccc([N+](=O)[O-])cc1Oc1ccccc1 1

* * *

Tested on: COLO 205 colon
protocol-description: NCI-60 one-dose screen, 48 h (100 = growth as untreated, 0 = no growth, -100 = all killed)
measurement-setup: 10 µM
Compounds without any hit were thinned out: in the full panel of roughly 83,000, 20% have a hit.
parameter-measured: growth (%)
Answers are plain numbers, in %.

Consider the following illustrative entries.
molecule	growth / %
C#CCn1c(-c2cccc(OCCCCl)c2)nc2c1c(=O)n(C)c(=O)n2C	96.8
NC1CCC(Nc2nc(NCc3ccc(-c4ccco4)nc3)c3ncn(C4CCCC4)c3n2)CC1 (stereo unspecified)	-62.7
COc1cc(-c2nc3ccccc3[nH]2)ccc1OCC(=O)N=Nc1c(O)[nH]c2ccccc12	74.6

Below are 5 molecules. Give each one its growth.
1. COc1ccc2nc(NC(=O)Nc3c(F)cccc3F)sc2c1
2. CCc1ccc(Nc2cc(C)nc3nc(C)nn23)cc1
3. c1ccc(COCC[P+](c2ccccc2)(c2ccccc2)c2ccccc2)cc1
4. COc1cc([C@@H]2c3cc4c(cc3[C@H](SC(=N)N)[C@H]3COC(=O)[C@H]23)OCO4)cc(OC)c1OC
5. COc1cc2nc(Sc3sc(N)nc3C)n(-c3ccc(Oc4ccccc4)cc3)c(=O)c2cc1OC

[125, -96.4, -41.2, -67.2, 76]

Provide growth values for the following items, in order.
1. CCc1ccc(-c2nnc(COc3ccc(-c4nc5ccc(C)cc5[nH]4)cc3OC)o2)cc1
2. COc1ccc(-c2ccccc2)cc1C(=O)c1ccc(-c2ccccc2)cc1
3. O=[N+]([O-])c1ccc2c(c1)Cc1cc(I)ccc1-2
4. CN(C)c1ccc2c(c1)OC(N)=C(C#N)C2c1ccc2c(c1)CCCN2C (stereo unspecified)
5. O=C(Cn1ccc(=O)[nH]c1=O)c1ccc([N+](=O)[O-])o1
6. COc1cc(-c2nc3cc(Cl)c(Cl)cc3[nH]2)ccc1OCC(=O)NN

1. 84.7
2. 82.5
3. 108
4. -10.2
5. 71.5
6. 108

// input: 5 molecules below; output: growth for each
1. N#CCC1CCCC1
2. CS(=O)(=O)Nc1ccc(OCc2nnc(-c3ccc(Cl)cc3)o2)c(F)c1
3. CC1(C)CCc2cc(-c3ccn(S(=O)(=O)c4ccc(Cl)cc4)n3)ccc2O1
4. CCn1nc(-c2ccc(C(=O)OC)cc2)nc2c(=O)n(C)c(=O)nc1-2
5. COc1ccc(C2C=C(c3ccc(Cl)c(Cl)c3)N=C3SC(C)=CN32)cc1 (stereo unspecified)

1: 109; 2: 110; 3: 117; 4: 87.2; 5: 104

Here are 2 molecules. What values of growth were reported for them?
1. COc1cc(/C=C/C(=O)c2cc(-c3ccc(C(F)(F)F)cc3)ccc2O)cc(OC)c1OC
2. COc1ccc(-c2cn[nH]c2-c2cc(OC)c(OC)c(OC)c2)cc1

1: 71.6; 2: -68
